- tested_on: SABP2 (Nicotiana tabacum)
- Sequence (Q6RYA0 whole entry): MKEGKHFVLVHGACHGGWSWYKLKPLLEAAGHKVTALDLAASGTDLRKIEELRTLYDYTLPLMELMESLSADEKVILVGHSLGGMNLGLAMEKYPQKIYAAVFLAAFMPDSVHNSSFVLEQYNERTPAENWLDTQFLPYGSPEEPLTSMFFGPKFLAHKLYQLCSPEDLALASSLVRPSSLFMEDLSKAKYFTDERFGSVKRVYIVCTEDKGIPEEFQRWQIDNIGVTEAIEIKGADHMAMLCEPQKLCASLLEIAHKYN
- experimental_details: [3H] salicylic acid-binding assay with unlabeled competitors, recombinant His6-SABP2 produced in E. coli
- Set-up: Full-length tobacco SABP2 was PCR amplified; His6 (N); made in house; host or cells: E. coli BL21 (DE3), vector pET28a; species or system tobacco (Nicotiana tabacum)
- experimental_context: 1 mM unlabeled competitor; protein produced in E. coli; no competitor = 140206 dpm
Assignment: determine reported Bound [^3H] SA SABP2 for the given compounds.
Give the quantity in dpm, number only.

Tell me the measured Bound [^3H] SA SABP2 of O=C(O)c1c(O)cccc1O [2,6-DHBA, 2,6-dihydroxybenzoic acid] , please. 924

What would you report for O=C(O)c1ccccc1O ? 160

What would you report for O=C(O)c1cc(Cl)ccc1O ? 260

What would you report for O=C(O)c1ccc(O)cc1 [4-HBA, 4-hydroxybenzoic acid] ? 95634

====

- tested_on: SABP2 (Nicotiana tabacum)
- experimental_details: SA / analog binding to SABP2 isolated from tobacco plant extracts
- experimental_context: SABP2 from tobacco, reversible binding; read-out: apparent Kd of SA binding to SABP2
measured_parameter: Kd

Identify the measured Kd of O=C(O)c1ccccc1O for SABP2 (Nicotiana tabacum). ~90 nM

====

Assignment: determine reported Bound [^3H] SA AtSB2L9 for the given compounds.
- tested_on: AtSB2L9 (Arabidopsis thaliana, UniProt O23171)
- Construct: made in house; host or cells: E. coli
- Sequence (O23171 1-256): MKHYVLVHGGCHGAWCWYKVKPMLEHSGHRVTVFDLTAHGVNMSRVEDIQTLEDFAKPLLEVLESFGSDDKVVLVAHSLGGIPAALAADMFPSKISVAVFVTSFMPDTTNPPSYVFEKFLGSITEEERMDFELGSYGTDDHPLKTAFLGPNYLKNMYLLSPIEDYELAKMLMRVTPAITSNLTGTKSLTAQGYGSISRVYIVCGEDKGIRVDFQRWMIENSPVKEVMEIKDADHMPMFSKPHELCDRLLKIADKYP
- experimental_details: [3H] salicylic acid-binding assay with unlabeled competitors, Arabidopsis homolog produced in E. coli
- experimental_context: 1 mM unlabeled competitor; protein produced in E. coli; no competitor = 16486 dpm
Give the quantity in dpm, number only.

Tell me the measured Bound [^3H] SA AtSB2L9 of O=C(O)c1ccc(O)cc1 [4-HBA, 4-hydroxybenzoic acid] , please. 3620

What would you report for O=C(O)c1cc(Cl)ccc1O ? 42

What would you report for O=C(O)c1ccccc1O ? 36

What would you report for O=C(O)c1c(O)cccc1O [2,6-DHBA, 2,6-dihydroxybenzoic acid] ? 1072

====

- tested_on: AtSB2L5 (Arabidopsis thaliana, UniProt Q9LFT6)
- Construct: made in house; host or cells: E. coli
- Sequence (Q9LFT6 whole entry): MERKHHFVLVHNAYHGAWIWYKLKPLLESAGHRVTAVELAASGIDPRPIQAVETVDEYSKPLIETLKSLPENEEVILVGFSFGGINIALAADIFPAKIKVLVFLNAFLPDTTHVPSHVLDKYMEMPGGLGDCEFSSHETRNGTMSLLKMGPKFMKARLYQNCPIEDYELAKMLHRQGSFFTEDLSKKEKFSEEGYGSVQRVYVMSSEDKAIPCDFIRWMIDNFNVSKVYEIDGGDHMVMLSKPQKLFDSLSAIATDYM
- experimental_details: [3H] salicylic acid-binding assay with unlabeled competitors, Arabidopsis homolog produced in E. coli
- experimental_context: 1 mM unlabeled competitor; protein produced in E. coli; no competitor = 12927 dpm
measured_parameter: Bound [^3H] SA AtSB2L5 (dpm)
Give the quantity in dpm, number only.

Tell me the measured Bound [^3H] SA AtSB2L5 of O=C(O)c1ccccc1O , please. 121

What would you report for O=C(O)c1cc(Cl)ccc1O ? 64

What would you report for O=C(O)c1c(O)cccc1O [2,6-DHBA, 2,6-dihydroxybenzoic acid] ? 1742

What would you report for O=C(O)c1ccc(O)cc1 [4-HBA, 4-hydroxybenzoic acid] ? 4757
